Listing of recorded composite z-score by entry.
Test system: Human papillomavirus type 1a protein E7 (residues 44-93)
Assay: HPV1a E7 fragment binders on microarrays, primary screen, biochemical, small-molecule microarray, residues 44-93, 635 nm fluorescence (AID 1108);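 further: E7 fragment applied at 1 µg/mL in TBST for 1 h at 4 C; score combines spot fluorescence with its signal to noise ratio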
Conditions: small-molecule microarray binding, fluorescence 635 nm; higher = more signal
measured parameter: composite z-score

compound: CCOC(=O)C[C@H]1[C@H](OC(=O)c2cc3ccccc3oc2=O)[C@@H](NC(=O)C2CCCCC2)c2cc(OCCCO)ccc2N1C(=O)c1ccccc1
measured on: Human papillomavirus type 1a protein E7 (residues 44-93)
numeric readout: 0.992
//
compound: COc1ccc(CCNC(=O)[C@@]2(C)c3ccccc3C(=O)N(Cc3cc(F)cc(C(F)(F)F)c3)[C@H]2c2ccc(CO)cc2)cc1
measured on: Human papillomavirus type 1a protein E7 (residues 44-93)
numeric readout: 0.0404
//
compound: COCCOC(=O)N1C(=O)[C@@]2(c3cc(C#CC4=CCCCC4)ccc31)[C@H](C(=O)Nc1nc3ccccc3s1)[C@H]1C(=O)O[C@H](c3ccccc3)[C@H](c3ccccc3)N1[C@@H]2c1ccc(OCCO)cc1
measured on: Human papillomavirus type 1a protein E7 (residues 44-93)
numeric readout: 1.05
//
compound: C=CC[C@]12N=C(c3ccc(OCCCO)cc3)O[C@H]1c1ccccc1N(Cc1ccccc1)C2=O
measured on: Human papillomavirus type 1a protein E7 (residues 44-93)
numeric readout: 0.0023
//
compound: C=C(/C(=C/C[C@@H](OC(C)=O)c1ccc(OCCO)cc1)c1cnc2ccccc2c1)C(C)C
measured on: Human papillomavirus type 1a protein E7 (residues 44-93)
numeric readout: 1.32
//
compound: CN1C(=O)C2C=CC(C(O)C3CCCCC3)N(Nc3ccc([N+](=O)[O-])cc3[N+](=O)[O-])C2C1=O (stereo not given)
measured on: Human papillomavirus type 1a protein E7 (residues 44-93)
numeric readout: 1.28
//
compound: O=C1OCCC/C=C\[C@H]2OC34C=CCN(Cn5nnc6ccccc65)C(=O)[C@H]3N(CCCCCCO)C(=O)[C@@H]4C12 (stereo not given in full)
measured on: Human papillomavirus type 1a protein E7 (residues 44-93)
numeric readout: -0.311
//
compound: C#CCN(Cc1ccccc1Br)C(/C=C/c1ccccc1)CO (stereo not given)
measured on: Human papillomavirus type 1a protein E7 (residues 44-93)
numeric readout: -0.413
//
compound: O=C1O[C@H](c2ccccc2)[C@H](c2ccccc2)N2[C@H]1[C@@H](C(=O)O)[C@]1(C(=O)Nc3ccc(C#CC4=CCCCC4)cc31)[C@H]2c1ccccc1OCCO
measured on: Human papillomavirus type 1a protein E7 (residues 44-93)
numeric readout: -0.65
//
compound: COc1ccc(COC2OC[C@]3(C)[C@H]4C5=C(CN3C(=O)OC(C)(C)C)[C@H](C)C(CO)C(CO)C5CC[C@@H]24)cc1 (stereo not given in full)
measured on: Human papillomavirus type 1a protein E7 (residues 44-93)
numeric readout: 1.27

====

Target: Torsin-1A (Homo sapiens) (UniProt O14656)
Sequence (O14656 whole entry, looked up): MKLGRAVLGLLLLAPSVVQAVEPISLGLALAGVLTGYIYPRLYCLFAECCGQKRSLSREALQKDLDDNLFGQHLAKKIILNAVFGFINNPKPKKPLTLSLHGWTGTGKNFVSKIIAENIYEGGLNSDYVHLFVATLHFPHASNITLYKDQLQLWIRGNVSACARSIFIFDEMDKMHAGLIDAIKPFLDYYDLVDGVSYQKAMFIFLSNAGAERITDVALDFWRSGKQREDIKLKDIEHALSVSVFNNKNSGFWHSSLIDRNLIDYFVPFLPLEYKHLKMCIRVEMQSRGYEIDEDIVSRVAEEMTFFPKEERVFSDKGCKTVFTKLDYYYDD
Assay: torsin A binders from cell lysate, primary screen, small-molecule microarray, wild-type, 635/667 nm (AID 1149)
Conditions: COS7 hTOR1A-WT lysate, 635 nm fluorescence, higher = more signal
# if value of composite z-score reaches 0.4, tag true (1); if it stays below, tag false (0)

compound: COc1ccc(CCN2C(=O)[C@@]3(c4ccc([N+](=O)[O-])cc4)CC(=O)N(C4CCCCC4)[C@@H]3c3ccc(CO)cc32)cc1
measured on: Torsin-1A (Homo sapiens) (UniProt O14656)
label: false (0)

compound: COc1ccc(C(O)C2C=CC3C(=O)N(c4ccccc4)C(=O)C3N2Nc2ccc(C(C)C)cc2)cc1OCc1ccccc1 (centres undefined)
measured on: Torsin-1A (Homo sapiens) (UniProt O14656)
label: false (0)

compound: COc1cc(OC)c(C(O)C2C=CC3C(=O)NC(=O)C3N2Nc2ccc(Cl)cc2Cl)cc1Br (centres undefined)
measured on: Torsin-1A (Homo sapiens) (UniProt O14656)
label: false (0)

compound: CC(C)(C)OC(=O)CC[C@]1(C(=O)O)N=C(c2ccc(OCCCO)cc2)O[C@H]1c1ccccc1N=[N+]=[N-]
measured on: Torsin-1A (Homo sapiens) (UniProt O14656)
label: false (0)

compound: COC(=O)[C@@]1(Cc2ccc(F)cc2)[C@H]2c3cc(C(=O)N4CCCC4)n(Cc4cc(C)n(C)n4)c3C[C@H]2CN1C(=O)c1ccccc1
measured on: Torsin-1A (Homo sapiens) (UniProt O14656)
label: false (0)

compound: C=C(COC)/C(=C/C[C@@H](OC(C)=O)c1ccc(OCCO)cc1)c1cc(C(=O)OC)ccc1OC
measured on: Torsin-1A (Homo sapiens) (UniProt O14656)
label: true (1)

compound: O=C1O[C@H](c2ccccc2)[C@H](c2ccccc2)N2[C@H]1[C@@H](C(=O)N1CCN(c3ncccn3)CC1)[C@]1(C(=O)Nc3ccc(C#CC4=CCCCC4)cc31)[C@H]2c1ccc(O)cc1
measured on: Torsin-1A (Homo sapiens) (UniProt O14656)
label: false (0)

compound: COCCOC(=O)N1C(=O)[C@@]2(c3cc(C#CCCO)ccc31)[C@H](c1ccc(OCCO)cc1)N1[C@H](c3ccccc3)[C@H](c3ccccc3)OC(=O)[C@H]1[C@@H]2C(=O)N1CCN(c2ncccn2)CC1
measured on: Torsin-1A (Homo sapiens) (UniProt O14656)
label: true (1)

compound: C=CCOC(=O)[C@@H]1[C@H]2C(=O)O[C@H](c3ccccc3)[C@H](c3ccccc3)N2[C@H](c2ccc(OCCOC(=O)[C@@H]3C[C@@H]4C(=O)N5CCC[C@H]5C(=O)N4[C@@H]3c3ccc(O)cc3)cc2)[C@@]12C(=O)Nc1ccc(I)cc12
measured on: Torsin-1A (Homo sapiens) (UniProt O14656)
label: true (1)

# credit: PubChem BioAssay
